FYI, the data here is from patent US20250206841A1.

Target: T1, cynomolgus Trop-2-His protein (cynomolgus, UniProt P09758 27-274 (human entry))
T1 construct: also called cynmolgus Trop-His; Kactus Cat #TRP-CM121; not shown: His tag
T1 chain: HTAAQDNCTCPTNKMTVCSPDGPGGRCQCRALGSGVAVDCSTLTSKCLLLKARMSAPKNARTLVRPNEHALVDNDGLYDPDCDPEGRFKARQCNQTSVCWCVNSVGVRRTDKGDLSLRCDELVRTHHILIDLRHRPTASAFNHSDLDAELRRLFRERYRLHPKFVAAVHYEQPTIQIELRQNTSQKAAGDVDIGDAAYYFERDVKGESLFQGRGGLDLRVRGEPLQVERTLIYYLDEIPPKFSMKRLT
Assay: ELISA, coated Trop-2 protein
QUANTITY_NAME: EC50 (nM)
Give the value, in units of nM, as a plain number.

Query :: Fill in: EC50 of 1D10 (antibody, V domains shown, Rabbit-derived clone; LEM construct: VH + rabbit IgG CH1 + human IgG1 CH2-CH3) VH: QEQLKESGGGLVQPGGSLTLSCKASGFDFNYYGVSWVRQAPGKGLEWIGYIYPAYHNTYYATWVNGRFTISSHNAQNTLYLQLNTLTAADTATYFCARDAGSTDYNLNLWGPGTLVTVSS VL: DVVMTQTPASVEVAVGGTVTIKCQASEDIESYLAWYQQKPGQPPRLLIYEASKLASGVSSRFSGGGYGTDFTLTISGVECADAATYYCHQALTIGNVDNPFGGGGEVVVK is ___
Result :: 0.017

Query :: Fill in: EC50 of 72F12 (antibody, V domains shown, Rabbit-derived clone; LEM construct: VH + rabbit IgG CH1 + human IgG1 CH2-CH3) VH: QEQLKESGGGLVQPGGSLKLSCKASGFDFNNYGVSWVRQAPGKGLEWIAYIYPAFHNTYYATWVNGRFTISSHNAQNTLYLQLNSLTAADTATYFCARDAGSVDYNFNLWGPGTLVTVSS VL: DVVMTQTPASVEVAVGGTVTIKCQASKNIDSNLAWYQQKPGQPPKQLIYAASTLASGVSSRFSGSGYGAEFTLTISGVECADAATYYCQQALTIGNVDNPFGGGSEVVVK is ___
Result :: 0.013

Query :: Fill in: EC50 of 63H3 (antibody, V domains shown, Rabbit-derived clone; LEM construct: VH + rabbit IgG CH1 + human IgG1 CH2-CH3) VH: QEQLKESGGGLVQPGGSLKLSCKASGFDFNSYGVSWVRQAPGKGLEWIAYIYPAFHNAYYANWVNGRFTISSDNAQNTVDLQLNSLTAADTATYFCARDAGGTDYNYNLWGPGTLVTVSS VL: DVVMTQTPASVEVAVGGTVTLKCQASEDIESYSAWYQQKPGQPPNLLIYEASKLASGVSSRFSGSGYGTEFTLTISGVECADAATYYCQQALTIGNVDNPFGGGSEVVVR is ___
Result :: 0.033

The record that follows has no EC50 shown yet.
Query :: Fill in: EC50 of 74F11/15F5 (antibody, human IgG1, V domains shown, LEM construct: VH + rabbit IgG CH1 + human IgG1 CH2-CH3) VH: QEQLKESGGGLVQPGGSLKLSCKASGFDFNNYGMSWVRQAPGKGLEWIAYIYPAFHNTYYANWVNGRFTISSDNAQNTVDLQLNSLTAADTATYFCARDAGSTDYNFNLWGPGTLVTVSS VL: DVVMTQTPASVEAAVGGTVTIKCQASEDIERYLAWYQQKPGQPPKLLIYEASKLPSGVSSRFSGSGYGTEFTLTISGVECADAATYYCQQALTIGYVDNPFGGGSEVVVK is ___
Result :: 0.014
